target: NHERF4_1, Q86UT5-2; test: holdup assay; parameters: key: below the threshold = too weak to quantify, mostly under pKd 3.1 to 4; details: plain residues with an end cap or a label only (N-terminal biotin on a linker: ado-ado)
Sequence (Q86UT5 other isoform, or with tags, fused parts or gaps): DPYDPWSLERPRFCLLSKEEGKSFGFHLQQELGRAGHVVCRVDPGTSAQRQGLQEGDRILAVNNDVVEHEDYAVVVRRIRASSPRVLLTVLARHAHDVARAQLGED
Record Condition met whenever pKd is at 4 or higher; record Condition not met when lower.

Determine whether measured pKd meets or exceeds 4 for APIAGFSSFV [SDK2, Q58EX2] Condition not met

Determine whether measured pKd meets or exceeds 4 for NTLNRKTTPV [CACNG8, Q8WXS5] Condition not met

Determine whether measured pKd meets or exceeds 4 for SRSVVESDEL [MYPN, Q86TC9] Condition met

Determine whether measured pKd meets or exceeds 4 for NVYGIESVKI [GRIA2, P42262] Condition not met

Determine whether measured pKd meets or exceeds 4 for QSYPSKHDYV [CLDN18, P56856] Condition not met

Determine whether measured pKd meets or exceeds 4 for AEASVACSLC [PTGIR, P43119] Condition met

Determine whether measured pKd meets or exceeds 4 for ARESQKVSHV [FAM110B, Q8TC76] Condition not met
